The measurements presented in this section are drawn from patent US20040054131A1.

Could you please report measured pKd for the items listed next?
Target: T1, FGFR1c extracellular domain-IgG fusion protein (human, UniProt P11362 22-377)
T1 construct: range 1-377; also called FGFR-IgG; FGFR ECD; not shown: Fc region of human IgG1
T1 sequence (looked up): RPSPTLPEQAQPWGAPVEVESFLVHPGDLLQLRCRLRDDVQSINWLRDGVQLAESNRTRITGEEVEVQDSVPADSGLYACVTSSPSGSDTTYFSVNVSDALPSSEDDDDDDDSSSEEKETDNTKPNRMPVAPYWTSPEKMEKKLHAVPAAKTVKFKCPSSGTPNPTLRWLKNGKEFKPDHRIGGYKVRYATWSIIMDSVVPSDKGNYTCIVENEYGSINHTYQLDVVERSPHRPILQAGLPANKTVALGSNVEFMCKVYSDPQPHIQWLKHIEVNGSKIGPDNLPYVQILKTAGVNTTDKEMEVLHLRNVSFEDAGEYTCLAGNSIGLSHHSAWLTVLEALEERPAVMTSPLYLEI
Assay: BIAcore real-time kinetic analysis, immobilized FGFR1c ECD, no heparin; approximate apparent affinity
Bridges are numbered along the chain shown (N, C = ends). Where no end group is shown, it is not given here.
Numbers only, as −log10 of the molar value.

| binder | test-value |
| --- | --- |
| C19junΔhep (designed binder, also called C19jun?hep; C19junahep) MAESGDDYCVLVFTDSAWTKICDWSHFRNGPGGGSGGGSGGGSGGGSGGGSRCGGQIAQLEEKVQTLQAQNSELASTANMLREQVAQLKQKVMNHGGCGGSGGHHHHHH | 8.00 |
| AESGDDYCVLVFTDSAWTKICDWSHFRN (disulfide 8-21 (inferred), also called C19 peptide; C19 clone) [C19 synthetic peptide] | 6.40 |

Now take the following binder into account.
I'd like to know its pKd. The binder in question is C19-jun fusion protein (designed binder, also called Clone 19-jun protein) MAESGDDYCVLVFTDSAWTKICDWSHFRNGPGGGSGGGSGGGSGGGSGGGSRCGGRIARLEEKVKTLKAQNSELASTANMLREQVAQLKQKVMNHGGCGGSGGHHHHHH
8.00
